Numbers sourced from patent US8828984B2.

Tested on: breast cancer (MCF-7)
Assay name: MTT cytotoxicity assay, MCF-7
Assay type: cell-based, human
Particulars: 72 h
Excerpt: Example 2 describes the in vitro cytotoxicity, which is indicative of the induction of cell death and/or inhibition of cellular proliferation of cancer cells, of the Au(III)-NHC complexes on cervical epithelioid carcinoma, hepatocellular carcinoma, leukemia, nasopharyngeal carcinoma, breast carcinoma, melanoma, and lung carcinoma. […]
Assay readout: pIC50
Kindly note that pIC50 refers to -log10 of the concentration in mol/L and answer with the value alone.

Solved cases (5 shown):
[
  {
    "Test smiles": "CCCCCCCCn1cc[n+](C)[c]1[Au-]12[n]3ccnc3-c3cccc([n+]31)-c1ncc[n]12.O=S(=O)([O-])C(F)(F)F",
    "pIC50": 5.07
  },
  {
    "Test smiles": "CCCCCCn1cc[n+](CCCCCC)[c]1[Au-]12[n]3c(nc4ccccc43)-c3cccc([n+]31)-c1nc3ccccc3[n]12.O=S(=O)([O-])C(F)(F)F",
    "pIC50": 5.40
  },
  {
    "Test smiles": "C[n+]1ccn(CCC[P+](c2ccccc2)(c2ccccc2)c2ccccc2)[c]1[Au-]12[n]3ccnc3-c3cccc([n+]31)-c1ncc[n]12.O=S(=O)([O-])C(F)(F)F.O=S(=O)([O-])C(F)(F)F",
    "pIC50": 4.30
  },
  {
    "Test smiles": "CCCCCCn1cc[n+](CCCCCC)[c]1[Au-]12[n]3ccnc3-c3cccc([n+]31)-c1ncc[n]12.O=S(=O)([O-])C(F)(F)F",
    "pIC50": 5.07
  },
  {
    "Test smiles": "CCCCCCCCCCCCCCCCn1cc[n+](C)[c]1[Au-]12[n]3ccnc3-c3cccc([n+]31)-c1ncc[n]12.O=S(=O)([O-])C(F)(F)F",
    "pIC50": 5.54
  }
]

// moving on: another record for pIC50
Bench note: what pIC50 did Cn1cc[n+](C)[c]1[Au-]12[n]3ccnc3-c3cccc([n+]31)-c1ncc[n]12.O=S(=O)([O-])C(F)(F)F show? 4.74
